This listing pairs compounds with measured Plant response rating, Oat, Wild.
# System: oat, wild (wild oat, Avena fatua)
# assay protocol: Test D controlled growth environment herbicide test, pre- and postemergence
# Assay type: in vivo
# experimental conditions: Preemergence, 250 g ai/ha; scale 0 to 100 (0 no effect, 100 complete control)
quantity: Plant response rating, Oat, Wild

[[record]]
record_smiles = "COc1nn(C)c(=O)c(-c2c(C)ccc3ccccc23)c1O"
experimental_result = 95

[[record]]
record_smiles = "COC(=O)Oc1c(C)nn(C)c(=O)c1-c1c(C)sc2c(C)cc(C)cc12"
experimental_result = 95

[[record]]
record_smiles = "CC(=O)Oc1c(C)nn(C)c(=O)c1-c1ccc(F)c2ccccc12"
experimental_result = 98

[[record]]
record_smiles = "CC(=O)Oc1c(C)nn(C)c(=O)c1-c1c(C)sc2ccc(C)cc12"
experimental_result = 100

[[record]]
record_smiles = "Cc1ccc2sc(C)c(-c3c(O)c(C)nn(C)c3=O)c2c1"
experimental_result = 100

[[record]]
record_smiles = "CCOC(=O)Oc1c(C)nn(C)c(=O)c1-c1c(C)sc2ccc(C)cc12"
experimental_result = 95

[[record]]
record_smiles = "CCC(=O)Oc1c(C)nn(C)c(=O)c1-c1c(C)sc2ccc(C)cc12"
experimental_result = 95

[[record]]
record_smiles = "CCC(=O)Oc1c(C)nn(C)c(=O)c1-c1c(C)sc2c(C)cc(C)cc12"
experimental_result = 100


###

This listing pairs molecules with measured Chamomile plant response rating.
# Tested on: chamomile (scentless chamomile, Matricaria inodora)
# assay protocol: Test D controlled growth environment herbicide test, pre- and postemergence
# Assay type: in vivo
# experimental conditions: Postemergence, 31 g ai/ha; scale 0 to 100 (0 no effect, 100 complete control)
quantity: Chamomile plant response rating

[[record]]
record_smiles = "CC(=O)Oc1c(Br)nn(C)c(=O)c1-c1c(C)ccc2ccccc12"
experimental_target = "chamomile (scentless chamomile, Matricaria inodora)"
quantity = "Chamomile plant response rating"
experimental_result = 100

[[record]]
record_smiles = "Cc1cc(C)c2sc(C)c(-c3c(OC(=O)OCCCl)c(C)nn(C)c3=O)c2c1"
experimental_target = "chamomile (scentless chamomile, Matricaria inodora)"
quantity = "Chamomile plant response rating"
experimental_result = 75

[[record]]
record_smiles = "CC(=O)Oc1c(C)nn(C)c(=O)c1-c1ccc(F)c2ccccc12"
experimental_target = "chamomile (scentless chamomile, Matricaria inodora)"
quantity = "Chamomile plant response rating"
experimental_result = 70

[[record]]
record_smiles = "C#CCOC(=O)Oc1c(C)nn(C)c(=O)c1-c1c(C)sc2ccc(C)cc12"
experimental_target = "chamomile (scentless chamomile, Matricaria inodora)"
quantity = "Chamomile plant response rating"
experimental_result = 90

[[record]]
record_smiles = "Cc1ccc2ccc(C)c(-c3c(O)c(C)nn(C)c3=O)c2c1"
experimental_target = "chamomile (scentless chamomile, Matricaria inodora)"
quantity = "Chamomile plant response rating"
experimental_result = 75

[[record]]
record_smiles = "CCC(=O)Oc1c(C)nn(C)c(=O)c1-c1c(C)sc2ccc(Cl)cc12"
experimental_target = "chamomile (scentless chamomile, Matricaria inodora)"
quantity = "Chamomile plant response rating"
experimental_result = 80


###

# Test system: Russian thistle (Salsola kali)
# assay protocol: Test D controlled growth environment herbicide test, pre- and postemergence
# Format: in vivo
# experimental conditions: Postemergence, 125 g ai/ha; visual rating on scale 0 (no effect) to 100 (complete control), 14 to 21 d
This listing pairs compounds with measured Plant response rating, Russian Thistle.
quantity: Plant response rating, Russian Thistle

[[record]]
record_smiles = "CC(=O)Oc1c(C)nn(C)c(=O)c1-c1c(C)cc(C)c2ccccc12"
experimental_target = "Russian thistle (Salsola kali)"
experimental_result = 45

[[record]]
record_smiles = "Cc1ccc2ccc(C)c(-c3c(O)c(C)nn(C)c3=O)c2c1"
experimental_target = "Russian thistle (Salsola kali)"
experimental_result = 80

[[record]]
record_smiles = "CCOC(=O)Oc1c(C)nn(C)c(=O)c1-c1c(C)ccc2ccccc12"
experimental_target = "Russian thistle (Salsola kali)"
experimental_result = 80

[[record]]
record_smiles = "CC(=O)Oc1c(Br)nn(C)c(=O)c1-c1c(C)ccc2ccccc12"
experimental_target = "Russian thistle (Salsola kali)"
experimental_result = 85

[[record]]
record_smiles = "CC(=O)Oc1c(C)nn(C)c(=O)c1-c1c(C)sc2c(C)cc(C)cc12"
experimental_target = "Russian thistle (Salsola kali)"
experimental_result = 70

